Data credit: PubChem BioAssay AID1259407

- Test system: CCRIS mutagenicity, Ames/micronucleus/aberration tests
- assayDetails: CCRIS mutagenicity studies
- conditionSummary: Test System: AMES SALMONELLA TYPHIMURIUM; Strain/Indicator: TA97A; Metabolic Activation: NONE; Method: PREINCUBATION
The source made the active and inactive calls. No rule for the calls is given here.
Possible outcomes: active, inactive

[
  {
    "compound": "Cc1cc2nc3c(ccc4ccccc43)c(C)c2cc1C",
    "classification": "active"
  },
  {
    "compound": "OC1C=C2c3ccc4ccccc4c3-c3cccc(c32)C1O (stereo unspecified)",
    "classification": "inactive"
  },
  {
    "compound": "Nc1nc2ncc(CNc3ccc(C(=O)N[C@@H](CCC(=O)O)C(=O)O)cc3)nc2c(=O)[nH]1",
    "classification": "inactive"
  },
  {
    "compound": "c1ccc([Se][Se]c2ccccc2)cc1",
    "classification": "active"
  },
  {
    "compound": "O=C[C@H](O)[C@@H](O)[C@H](O)CO",
    "classification": "inactive"
  },
  {
    "compound": "Cc1c2ccccc2cc2c3c(ccc12)C(=O)C(=O)C=C3",
    "classification": "active"
  }
]
